- studyTarget: recombinant human TFPI (tissue factor pathway inhibitor) (human, UniProt P10646 29-304)
- assayProtocol: cell-based or functional assay
measuredQuantity: FXa assay OD, 5 nM Ab, 10 nM TFPI

The binder listed as clone 1104 (antibody, V domains shown) VH: EVQLVESGGGLVKPGGSLRLSCAASGFTFSSYAMNWVRQAPGKGLEWVGTITTGGSHTYYADSVQGRFTISRDNAKNSLYLQMNSLRAEDTAVYYCARQDGNFLMDYWGQGTLVTVSS VL: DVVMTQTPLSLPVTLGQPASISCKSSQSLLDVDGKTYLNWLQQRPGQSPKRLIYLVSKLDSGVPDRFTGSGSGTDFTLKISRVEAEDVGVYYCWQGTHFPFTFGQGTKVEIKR has a reported FXa assay OD, 5 nM Ab, 10 nM TFPI of 0.137
